molecular target: Glucose transporter (Leishmania mexicana) (UniProt O61059); test: ST_JUDE_LEISH: Cytotoxicity at 2uM final concentration against transgenic Leishmania Mexicana promastigotes LmGT2 that are glucose transport deficient and complemented with the L. Mexicana glucose transporter 2. Activity is measured by DNA content using SYBR green in vitro; assay type: functional
Please go through the items and note down their inhibition.
Numbers only, in %.

Study these solved cases before continuing.
- record smiles: "Cc1cccc2nc(-c3cccc(-c4ccc(NC(=O)c5cnccc5C(F)(F)F)cc4)c3)[nH]c12"
  value reported: 3.44
- record smiles: "O=C(NCCCCCN1CCC(c2c[nH]c3ccccc23)CC1)Nc1ccc(I)cc1"
  value reported: 9.45
- record smiles: "COc1ccc2nccc([C@@H](O)CN3CCC(NCc4cc5ccccc5s4)CC3)c2c1"
  value reported: 0.03
- record smiles: "Fc1ccc2[nH]c(-c3cccc(-c4ccc(CN5CCN(CCN6CCOCC6)CC5)cc4)c3)nc2c1"
  value reported: 1.79
- record smiles: "COc1ccc(CNCc2cccc(-c3cccc(-c4nc5cc(C(F)(F)F)ccc5[nH]4)c3)c2)cc1"
  value reported: 3.48
- record smiles: "O=C(Nc1ccc(NC2=NCCN2)cc1)c1ccc(C(=O)Nc2ccc(NC3=NCCN3)cc2)cc1"
  value reported: 6.75

Provide each entry's inhibition from the list below.
1. O=c1cc(NCCCNCc2cc3c(Cl)cccc3s2)[nH]c2ccccc12
2. COc1ccc(-c2ccc(NC(=O)c3ccc(C#N)cc3)cc2)cc1CN1CCN(C)CC1
3. N=C(Nc1cccc(Cc2ccccc2)n1)Nc1ncccn1

### Response
-2.02
2.76
1.88

* * *

target: Solute carrier family 2, facilitated glucose transporter member 1 (Homo sapiens); assay: ST_JUDE_LEISH: Cytotoxicity at 2uM final concentration against transgenic Leishmania Mexicana promastigotes LmGLUT1 that are glucose transport deficient and complemented with the human glucose transporter GLUT1. Activity is measured by DNA content using SYBR green in vitro; type: functional
assay metric: inhibition (%)
Answers are plain numbers, in %.

Study these solved cases before continuing.
- record smiles: "CCc1c[nH]c2c(N3CCCS3(=O)=O)cc(C(=O)N[C@@H](Cc3ccccc3)[C@H](O)CNC(C)(C)CCCC(C)C)cc12"
  unit text: "%"
  inhibition: 1.92
- record smiles: "N=C(NCc1ccccc1)Nc1nc(-c2ccc(OCCCn3ccnc3)cc2)cs1"
  unit text: "%"
  inhibition: 29.9
- record smiles: "CN(C(=O)C1(c2ccc(Cl)cc2)CC1)C1CCN(CCCCCNC(=O)/C=C/c2ccc(Cl)c(Cl)c2)CC1"
  unit text: "%"
  inhibition: 0.14

Short answer for `Fc1ccc(Nc2ccnc3cc(-c4ccc(CNCCN5CCOCC5)o4)ccc23)c(Cl)c1` : inhibition was 2.04

* * *

Please go through the items and note down their inhibition.
target: Hexose transporter 1 (Plasmodium falciparum); assay: ST_JUDE_LEISH: Cytotoxicity at 2uM final concentration against transgenic Leishmania Mexicana promastigotes LmPfHT that are glucose transport deficient and complemented with the Plasmodium falciparum hexose transporter. Activity is measured by DNA content using SYBR green in vitro; assay type: functional
Answers are plain numbers, in %.

- molecule: "Cc1nc(-c2cccc(NCc3ccccc3)c2)[nH]c1C"
  inhibition / %: 7.04
- molecule: "O=C(/C=C/c1ccc(Cl)c(Cl)c1)NCCCCCCN1CCCN(C(=O)Nc2ccc(C(F)(F)F)cc2)CC1"
  inhibition / %: 2.95
- molecule: "[O-][s+]1nc(NCCCN(Cc2cccs2)c2ccccn2)c(NCc2ccccc2)n1 (stereo not given)"
  inhibition / %: 0.68
- molecule: "Cc1c(Cc2ccccc2Br)cnc2nc(N)nc(N)c12"
  inhibition / %: 30.2
- molecule: "CCCc1cc(C(=O)N[C@@H](Cc2ccccc2)[C@H](O)CNC(C)(C)c2cccc(OC)c2)c(F)c(N2CCCC2=O)c1"
  inhibition / %: 7.94

Provide each entry's inhibition from the list below.
1. Cc1cccc2nc(-c3ccc(-c4ccc(NC(=O)C(C)CN5CCN(C)CC5)cc4)s3)[nH]c12 (stereo not given)
2. Cc1nc2ccc3nc(NC(=O)c4ccno4)sc3c2s1
3. CCCNCc1ccc(-c2ccc(CN(CCOC)C(=O)CCc3ccc(OC)cc3)cc2)nc1
4. Clc1cccc(C23N/C(=N\c4nc5ccccc5[nH]4)NC2(c2ccccc2)N/C(=N\c2nc4ccccc4[nH]2)N3)c1 (stereo not given)

### Response
[3.1, 1.13, -1.02, 4.69]

Provide each entry's inhibition from the list below.
1. O=C(Nc1ccc(Oc2ccc(OC(F)(F)F)cc2)cc1)c1ccco1
2. Cc1cc(Nc2ccc(Oc3ccc(Cl)cc3)cc2)nc(N)n1
3. COc1cc2c(cc1N1CCN(C)CC1)N(C(=O)Nc1ccc(-c3ccncc3)c(Cl)c1Cl)CC2
4. CCOc1ccccc1CNc1nccc(NCc2ccc(Cl)cc2Cl)n1
5. CS(=O)(=O)c1ccc(-c2cncc(Nc3cccc([N+](=O)[O-])c3)c2)cc1
6. Cn1c(Nc2cc(C(C)(C)C)on2)nc2cc(Nc3ccnc(Nc4cccc(CS(C)(=O)=O)c4)n3)ccc21
7. CCS(=O)(=O)c1ccc(OC)c(Nc2nccc(-c3c(-c4cccc(NC(=O)c5c(F)cccc5F)c4)nn4ncccc34)n2)c1
8. Cc1cc(=NN=Cc2ccccc2Cl)c2ccccc2[nH]1

### Response
1. 1.49
2. 5.01
3. 0.34
4. 21.2
5. 7
6. 2.81
7. 3.41
8. 8.36

Provide each entry's inhibition from the list below.
1. CN1CCN(Cc2cc3cc(NC(=O)/C=C/c4ccc(Cl)cc4)ccc3s2)CC1
2. CCOc1cccc2nc(NCCCNCc3ccc(Cl)c(Cl)c3)cc(NCCCNCc3ccc(Cl)c(Cl)c3)c12
3. Oc1ccc2ccccc2c1CNC1CCCCCC1

### Response
[0.55, -0.94, 1.51]

Hello, the source for this data is ChEMBL document CHEMBL3433997, in case you need it.
